- measuredOn: HLA-DR DRB1*0405 (human)
pIC50: −log10 of the molar value.
endpointName: pIC50

Give its pIC50 value. Item: CEQIADSQHRSHRQM (modifications not checked) [Flu.M1.154]
< 5.00
